Tested on: CD2F1 mice, L1210 leukemia ip, survival T/C
Assay: NCI In Vivo Anticancer Drug Screen. Data for tumor model L1210 Leukemia (intraperitoneal) in CD2F1 (CDF1) mice
Conditions: endpoint: mean survival time; dose: 200.0 mg/kg/injection; schedule: Q01DX005 (ip); vehicle: distilled water + Tween-80; higher = longer survival
Inconclusive results and toxic doses are left out.
measurement_label: T/C

Check out these entries, answers already filled in.
>>> print(df.to_string())
                                   molecule   measured_value
0  O=c1nc(/C=C(\O)c2ccccc2)ccn1C1OC(CO)C(O)C1O (stereo not given)  98 % of control
1  O=c1[nH]c(=O)n(C2OC(CO)C(O)C2O)nc1SCc1ccccc1 (stereo not given)  97 % of control

Each of the following entries comes with a recorded value; kindly state T/C for each.
1. CCOC(=O)C(C(=O)OCC)n1c(=O)c2c(ncn2C)n(C)c1=O
2. CCCCNC(=S)NNC(=O)Cn1cnc2c1c(=O)n(C)c(=O)n2C
3. COc1ccc(Nc2ncnc3c2ncn3C2OC(CO)C(O)C2O)cc1 (stereo not given)

1. 102 % of control
2. 101 % of control
3. 100 % of control

* * *

System: CD2F1 mice, L1210 leukemia ip, survival T/C
Experiment: NCI In Vivo Anticancer Drug Screen. Data for tumor model L1210 Leukemia (intraperitoneal) in CD2F1 (CDF1) mice
Settings: endpoint: mean survival time; dose: 400.0 mg/kg/injection; schedule: Q04DX003 (ip); vehicle: saline with Tween-80; higher = longer survival
Toxic doses and inconclusive results are not listed.
Assignment: determine reported T/C for the given molecules.

                  molecule                             tested_target   measured_value
0  CSc1ccccc1C(C)(C)C(=O)O  CD2F1 mice, L1210 leukemia ip, survival T/C  96 % of control

Quick one: give me T/C for each item below, same order please.
1. CC(CCCC1SCC2NC(=O)NC21)C(=O)O (stereo not given)
2. CN(CCSSCCN(C)/N=C/c1ccccc1)/N=C/c1ccccc1
3. COc1ccc(OC)c(C(=O)CCl)c1
4. O=C(CC(=O)Oc1ccc(Cl)cc1Cl)Oc1ccc(Cl)cc1Cl
5. CCOC(=O)CSC(=S)NC1CCCCC1
6. c1ccc(COCCOc2ccccc2)cc1
7. CN(C)CCCN1c2ccccc2C(C)(C)c2ccccc21

["98 % of control", "101 % of control", "92 % of control", "95 % of control", "95 % of control", "102 % of control", "114 % of control"]

Batch: T/C for all items listed.
1. CSc1n[nH]c(N=[N+]=[N-])c1C(N)=O
2. O=C(Nc1ccccc1Cl)c1ccc([N+](=O)[O-])cc1

["101 % of control", "93 % of control"]

* * *

Test system: CD2F1 mice, L1210 leukemia ip, survival T/C
Test: NCI In Vivo Anticancer Drug Screen. Data for tumor model L1210 Leukemia (intraperitoneal) in CD2F1 (CDF1) mice
Conditions: endpoint: mean survival time; dose: 100.0 mg/kg/injection; schedule: Q01DX009 (ip); vehicle: saline with Tween-80
Toxic doses and inconclusive results are not listed. How the source made its calls: active means survival T/C of 150% or more; inactive means T/C below 125% in these data.
Log the outcome using a class from yes for active, no for inactive

Solved cases (2 shown):
                                   compound  category_label
0  CC(C)=CCNc1ncnc2c1ncn2C1OC(CO)C(O)C1O (centres undefined)              no
1         COc1ccc(S(=O)(=O)N/N=C/C(=O)O)cc1             yes

What did the test return for N#CCC(=O)N/N=C/c1ccccc1 ?
no

// outcome(item) with item = O=Cc1n[nH]nc1-c1ccccc1
no

Hi team, can someone confirm the assay call for CCOC(=O)CC(=O)c1ccccc1SC ?
no

What did this assay record as the result for CCc1ccc(C#N)cc1O ?
no

Would you mind telling me which call this test gave O=C(O)C1C2OC3C(OC(=O)C31)C2Br (centres undefined) ?
no

* * *

For each of the compounds below, state its T/C.
Tested on: CD2F1 mice, L1210 leukemia ip, survival T/C
Assay: NCI In Vivo Anticancer Drug Screen. Data for tumor model L1210 Leukemia (intraperitoneal) in CD2F1 (CDF1) mice
Conditions: endpoint: mean survival time; dose: 200.0 mg/kg/injection; schedule: Q01DX001 (ip); vehicle: other; higher = longer survival
Toxic doses and inconclusive results are not listed.

Worked set:
>>> print(df.to_string())
                                   compound    measured_value
0  CC(C)(COCc1ccccc1)COP(N)(=O)N(CCCl)CCCl (centres undefined)   96 % of control
1                    O=c1cn[nH]c2c(F)cccc12  104 % of control

For each of the compounds below, state T/C.
1. CCOC(=O)N1N(C(=O)c2ccccc2)C(=O)CC1(C)C
2. CCOc1ccc2c(c1)c(CC(=O)O)cn2C

1. 116 % of control
2. 101 % of control

* * *

Exercise: state measured T/C for each of the molecules provided.
System: CD2F1 mice, L1210 leukemia ip, survival T/C
Test: NCI In Vivo Anticancer Drug Screen. Data for tumor model L1210 Leukemia (intraperitoneal) in CD2F1 (CDF1) mice
Settings: endpoint: mean survival time; dose: 6.25 mg/kg/injection; schedule: Q04DX003 (ip); vehicle: water; higher = longer survival
Inconclusive results and toxic doses are left out.

>>> print(df.to_string())
                                   molecule    measured_value
0  CCN(CC)Cc1ccc([NH-])c([NH-])c1.CCN(CC)Cc1ccc([NH-])c([NH-])c1.[Cl][Pt+2][Cl].[Cl][Pt+2][Cl].[Cl][Pt+2][Cl]  108 % of control
1  [Cl][Pt+2][Cl].[NH-]c1ccc(CC(=O)O)cc1[NH-]  105 % of control
2  Cn1c(=O)c2[n-]cnc2n(C)c1=O.[NH2-].[NH2-].[NH2-].[NH2-].[NH2-].[Ru+6]  106 % of control

Please turn your attention to the following entry.
Entry [NH-]C(CO)C(=O)O.[NH-]C(CO)C(=O)O.[Pt+2] (centres undefined) — recorded T/C = 103 % of control

* * *

Test system: CD2F1 mice, L1210 leukemia ip, survival T/C
Test: NCI In Vivo Anticancer Drug Screen. Data for tumor model L1210 Leukemia (intraperitoneal) in CD2F1 (CDF1) mice
Conditions: endpoint: mean survival time; dose: 400.0 mg/kg/injection; schedule: Q04DX003 (ip); vehicle: Klucel (hydroxypropylcellulose) (HPC); higher = longer survival
Toxic doses and inconclusive results are not listed.
Kindly supply the reported T/C values for the records listed here.

>>> df
                                   compound    measured_value
0             C(=N\Nc1nc2ccccc2o1)/c1ccncc1  101 % of control
1  CC1=C/C(=N\N=C2/C=C(C)CC(C)(C)C2)CC(C)(C)C1   89 % of control
2  Cc1ccc(CS(=O)(=O)C(Cl)(Cl)c2ccc(C)cc2)cc1   94 % of control
3                       ClCc1ccc(Cl)c(Cl)c1  102 % of control
4  CCCCCC(C(O)C#N)C(O)(C(F)(F)F)C(F)(F)F (stereo not drawn)   90 % of control
5                CNC(=S)Nc1ccc(OC)c2ccccc12   89 % of control
6       C(=N\Nc1nc2ccccc2s1)/c1ccc2ccccc2n1   94 % of control

With those in mind, consider the next compound.
Documented T/C of Cc1cc(N)ccc1N(c1c(Cl)c(Cl)c(NS(=O)(=O)c2ccccc2)c(Cl)c1Cl)S(=O)(=O)c1ccccc1 : 95 % of control

* * *

Assign T/C to each entry below.
Test system: CD2F1 mice, L1210 leukemia ip, survival T/C
Assay: NCI In Vivo Anticancer Drug Screen. Data for tumor model L1210 Leukemia (intraperitoneal) in CD2F1 (CDF1) mice
Details: endpoint: mean survival time; dose: 100.0 mg/kg/injection; schedule: Q01DX009 (ip); vehicle: other; higher = longer survival
Inconclusive results and toxic doses are left out.

Below: 5 compounds and their reported T/C.
>>> print(df.to_string())
                                   compound                             tested_target  measurement_label    measured_value
0  COc1ccc(C(=O)NNC(=O)c2ccc(OC)c(OC)c2)cc1OC  CD2F1 mice, L1210 leukemia ip, survival T/C                T/C  108 % of control
1                 CNOCc1ccc(C(=O)NC(C)C)cc1  CD2F1 mice, L1210 leukemia ip, survival T/C                T/C   98 % of control
2     COc1ccc(/C=C(/C(=O)O)c2ccc(OC)cc2)cc1  CD2F1 mice, L1210 leukemia ip, survival T/C                T/C   98 % of control
3         COc1ccc(/C=N/NC(=O)c2ccccc2)cc1OC  CD2F1 mice, L1210 leukemia ip, survival T/C                T/C  107 % of control
4  CC1=CC(O)(C2(O)C=C(C)CC(C)(C)C2)CC(C)(C)C1 (centres undefined)  CD2F1 mice, L1210 leukemia ip, survival T/C                T/C  102 % of control

Kindly give each listed record's T/C.
1. OC1(C(Cl)(Cl)Cl)CCCCC1
2. COc1ccc2c(c1[N+](=O)[O-])CCCCC2=O
3. CC1(C)/C(=N/Nc2ccc([N+](=O)[O-])cc2[N+](=O)[O-])C=Cc2ccccc21
4. Oc1ccc(O)c(CCCCCc2cc(O)ccc2O)c1

["101 % of control", "92 % of control", "90 % of control", "102 % of control"]

Values were extracted from PubChem BioAssay AID256.
